Measured values drawn from ChEMBL document CHEMBL1781929 for this set.

- System tested: Sodium-dependent serotonin transporter (Rattus norvegicus)
- Protocol details: Displacement of [3H]5-HT from of SERT in rat midbrain homogenates at 10 uM after 5 mins by scintillation counting
- Type: tissue-based
Quick reference: inhibition of the listed items.

Compound	System tested	inhibition / %
O=C(CCN1CCC(N2CCOCC2)CC1)c1csc2ccccc12	Sodium-dependent serotonin transporter (Rattus norvegicus)	30.2
N#Cc1ccc(N2CCCN(CCC(O)c3csc4ccccc34)CC2)cc1 (stereo not drawn)	Sodium-dependent serotonin transporter (Rattus norvegicus)	36.7
O=C(CCN1CC[C@@H](Nc2ccc([N+](=O)[O-])cc2)C1)c1csc2ccccc12	Sodium-dependent serotonin transporter (Rattus norvegicus)	76.5
